Provenance of the data: patent US6699683B1

Tested on: human gamma glutamyl hydrolase (hGH)
TEST_PROTOCOL: hGH activity assay with 4-NH2-10-CH3PteGlu2 as substrate (Km, Vmax, specific activity) of E. coli-expressed purified proteins
Assay type: biochemical
CONDITION: purified E. coli-expressed proteins

{"MOLECULE": "C124A: hGH variant with cysteine 124 replaced by alanine (protein) RPHGDTAKKPIIGILMQKCRNKVMKNYGRYYIAASYVKYLESAGARVVPVRLDLTEKDYEILFKSINGILFPGGSVDLRRSDYAKVAKIFYNLSIQSFDDGDYFPVWGTCLGFEELSLLISGEALLTATDTVDVAMPLNFTGGQLHSRMFQNFPTELLLSLAVEPLTANFHKWSLSVKNFTMNEKLKKFFNVLTTNTDGKIEFISTMEGYKYPVYGVQWHPEKAPYEWKNLDGISHAPNAVNPAFYLAEFFVNEARKKNHHFKSESEEEKALIYQFSPIYTGNISSFQQCYIFD", "hGH activity (in words)": "had activity"}
{"MOLECULE": "C19A: hGH variant with cysteine 19 replaced by alanine (protein) RPHGDTAKKPIIGILMQKARNKVMKNYGRYYIAASYVKYLESAGARVVPVRLDLTEKDYEILFKSINGILFPGGSVDLRRSDYAKVAKIFYNLSIQSFDDGDYFPVWGTCLGFEELSLLISGECLLTATDTVDVAMPLNFTGGQLHSRMFQNFPTELLLSLAVEPLTANFHKWSLSVKNFTMNEKLKKFFNVLTTNTDGKIEFISTMEGYKYPVYGVQWHPEKAPYEWKNLDGISHAPNAVNPAFYLAEFFVNEARKKNHHFKSESEEEKALIYQFSPIYTGNISSFQQCYIFD", "hGH activity (in words)": "had activity"}
{"MOLECULE": "C290A: hGH variant with cysteine 290 replaced by alanine (protein) RPHGDTAKKPIIGILMQKCRNKVMKNYGRYYIAASYVKYLESAGARVVPVRLDLTEKDYEILFKSINGILFPGGSVDLRRSDYAKVAKIFYNLSIQSFDDGDYFPVWGTCLGFEELSLLISGECLLTATDTVDVAMPLNFTGGQLHSRMFQNFPTELLLSLAVEPLTANFHKWSLSVKNFTMNEKLKKFFNVLTTNTDGKIEFISTMEGYKYPVYGVQWHPEKAPYEWKNLDGISHAPNAVNPAFYLAEFFVNEARKKNHHFKSESEEEKALIYQFSPIYTGNISSFQQAYIFD", "hGH activity (in words)": "had activity"}
